System: SF-539 CNS
Test: NCI tumour cell line growth inhibition, 48 h
Field: TGI. Provide a value for each of the compounds that follow.

Give the measured TGI of `O=C1NC(=NCCc2cccs2)S/C1=C\c1ccc2ncccc2c1` . > 25 µM

What value of measured TGI is listed for CC12OC(=O)[C@@]3(O)CCC4C(C[C@H]5O[C@]56CC=CC(=O)[C@]46C)C45OC[C@H]6C(=O)O[C@@H]1C[C@@]6(C)[C@H](C4=O)C23O5 (stereo not given in full) ? 0.923 µM

Entry N#CCCC(CC#N)N1CCN(C(CC#N)CCC#N)CC1 (stereo not given) : reported TGI = ? > 100 µM

I would be grateful if you could share the reported TGI for CCOC(=O)[C@@H]1C2C(=C[C@H]3[C@H]1C(=O)N1CCCC[C@H]31)CCCN2C(=O)OCc1ccccc1 (stereo not given in full) . > 100 µM

Entry `Cc1ccc(N(C)S(=O)(=O)c2ccc([N+](=O)[O-])cc2)cc1` has what TGI? > 100 µM

----------
Exercise: state measured TGI for each of the compounds provided.
System: MDA-MB-231 breast
Test: NCI tumour cell line growth inhibition, 48 h

Quick one: TGI of `Cc1ccccc1N=Nc1cc(C)c(N=Nc2c(O)ccc3ccccc23)cc1C` ? > 100 µM

Quick one: TGI of O=C(C(=NC12CC3CC(CC(C3)C1)C2)NNc1ccc([N+](=O)[O-])cc1[N+](=O)[O-])C(Br)C(=O)c1ccccc1 (stereo not drawn) ? 6.13 µM

// returns reported TGI for input `Cn1c(-c2ccc(/C=N/N=C/c3ccc(-c4c[n+]5ccccc5n4C)cc3)cc2)c[n+]2ccccc12` > 100 µM

GET /values?readout=TGI&item= `COC(=O)[C@@]12OC[C@]34[C@H]([C@@H](O)[C@@H]1O)[C@@]1(C)CC(=O)C(OC(C)=O)=C(C)[C@@H]1C[C@H]3OC(=O)[C@H](OC(=O)C=C(C)C)[C@@H]24` 5.8 µM

# query: TGI of entry `C[C@H](CCC(=O)NN)[C@H]1CC[C@H]2[C@@H]3CC[C@@H]4C[C@H](O)CC[C@]4(C)[C@H]3CC[C@]12C` > 100 µM

Which TGI is listed for O=C(O)c1ccccc1C1CCCc2c1[nH]c1ccccc21 (stereo not drawn) ? > 100 µM

So what does the record say about TGI for `O=C1C=CC(=O)c2c(O)c(CO)c(CO)c(O)c21` ? 2.74 µM

Would you kindly share the measured TGI for `N#CCCC1(CCC#N)CCc2ccccc2C1=O` ? > 100 µM

----------
Test system: IGROV1 ovarian
Assay: NCI tumour cell line growth inhibition, 48 h
Property: TGI

Form entry - test system: IGROV1 ovarian; read-out: TGI; compound: `CCCCC/C=C\C=C1\C(=O)C=C[C@@H]1C/C=C\CCCC(=O)O` 8.93 µM

Param readout = TGI; param system = IGROV1 ovarian; param query = `O=C1C=Cc2cscc21` ; response: value > 100 µM

Give TGI (IGROV1 ovarian) of the following compound: Cn1nc(-c2cccs2)cc1/N=C(\N)C(C)(C#N)Cc1ccccc1 (stereo unspecified) > 100 µM

Requested read-out TGI, target or system IGROV1 ovarian, entry C=C(C)/C=C/C(O)[C@](C)(O)[C@H]1[C@H](O)C[C@@]2(C)[C@@H]3CCc4c(cc(OC5OC(CO)C(O)C(O)C5O)c(O)c4C)C3(C)C(=O)C[C@]12C (stereo partly specified) > 100 µM

API: value(readout= TGI, system= IGROV1 ovarian, query= `Cc1ccc(O)c(N=Nc2c(O)cc(S(=O)(=O)O)c3ccccc23)c1` ) > 100 µM

Request: TGI, test system IGROV1 ovarian, entry `Cn1c(-c2ccc(/C=N/N=C/c3ccc(-c4c[n+]5ccccc5n4C)cc3)cc2)c[n+]2ccccc12` > 100 µM

Provide the documented TGI with IGROV1 ovarian as the system for `COc1c(Br)cc(Br)c(OC)c1-c1ccc[nH]1` > 100 µM

Requested read-out TGI, target or system IGROV1 ovarian, entry `Cc1ccc(C[N+](C)(C)N)cc1C` > 10 µM

// fetch IGROV1 ovarian TGI for `CN(C)CCCNC(=O)CCNC(=O)c1cc(NC(=O)c2cc(NC(=O)c3cc(NC(=O)CCCNC(=O)c4cc(NC(=O)c5cc(NC(=O)c6nccn6C)cn5C)cn4C)cn3C)cn2C)cn1C` > 100 µM

Field: TGI (IGROV1 ovarian). Entry: `CC1(C)CCC(S(=O)(=O)c2ccc3c(c2)/C(=N\O)c2cc(S(=O)(=O)N4CCN(c5ccc(F)cc5O)CC4)ccc2-3)CC1` 0.346 µM

Please state recorded TGI (tested on IGROV1 ovarian) of CCOC(=O)N1C=NC23C(c4ccccc4)C(c4ccccc4)C12C(=O)N(C)C(=O)N3C (stereo unspecified) > 100 µM

Query the reported TGI for IGROV1 ovarian; item: `COc1ccc(/C=C/C(=O)C(C)C)cc1` > 100 µM

Lab request: please report TGI under test system IGROV1 ovarian for O=P(O)(OP(=O)(O)c1ccccc1)c1ccccc1 (tested in a mixture with another compound) > 100 µM

Entry COc1ccc(C(OCC2OC(n3cnc4c(=O)n(Cc5ccccc5[N+](=O)[O-])nnc43)C(O)C2O)(c2ccccc2)c2ccc(OC)cc2)cc1 (stereo unspecified) , system IGROV1 ovarian: what TGI was measured? > 71.2 µM

Query TGI on IGROV1 ovarian for `CN(C)CCNC(=O)c1ccc(Cl)c2c(Nc3ccc(S(=O)(=O)N=C(N)N)cc3)c3ccccc3nc12` 18.5 µM

Lookup: TGI / IGROV1 ovarian / `COC(=O)[C@@H](Nc1ccccc1)[C@@]1(C(=O)OC)SC12c1ccccc1-c1ccccc12` > 100 µM

# get_value(readout= TGI, system= IGROV1 ovarian) for `O=C1CCCn2c(nc3ccccc32)N1` > 100 µM

Recall the recorded TGI for `CC1=C(SCCC(=O)OCC(=O)NCCC[Te]c2ccccc2)C(=O)c2ccccc2C1=O` with IGROV1 ovarian and state it. 5.58 µM

Give TGI (IGROV1 ovarian) of the following compound: `Cc1ccc2nc(C=Nc3ccccc3Cl)cc(C)c2c1` 36.7 µM

Lab request: please report TGI under test system IGROV1 ovarian for CC12OC(=O)[C@@]3(O)CCC4C(C[C@H]5O[C@]56CC=CC(=O)[C@]46C)C45OC[C@H]6C(=O)O[C@@H]1C[C@@]6(C)[C@H](C4=O)C23O5 (stereo partly specified) 2.58 µM

For IGROV1 ovarian, provide TGI of `NC(N)=NS(=O)(=O)c1ccc(NC(=O)c2cccc3c(NNc4ccc(C(=O)O)cc4)c4ccccc4nc23)cc1` please. > 100 µM

I'm curious: which TGI was measured for Cc1cc2c(cc1C)N1C(Cl)=C3CCCCC3=C(C#N)C1N2 (stereo unspecified) tested on IGROV1 ovarian? 28.3 µM

What is its TGI for IGROV1 ovarian? Entry: Cc1[nH]c2c(C)cccc2c1C1Cc2ccccc2N1 (stereo unspecified) 36.7 µM

Give TGI (IGROV1 ovarian) of the following compound: `COc1cc(-n2cncc2-c2ccc3ccccc3c2)cc(OC)c1OC` > 38 µM

Record `O=c1c2ccccc2nc(/C=C(\O)c2ccccc2)n1-c1ccccc1Cl` : what is its TGI with IGROV1 ovarian? > 100 µM

Record C=C(C)[C@@H]1CC[C@]2(CNCCO)CC[C@]3(C)[C@H](CC[C@@H]4[C@@]5(C)CCC(N)[C@@](C)(CO)[C@@H]5CC[C@]43C)[C@@H]12 (stereo partly specified) : what is its TGI with IGROV1 ovarian? 4.09 µM

Param readout = TGI; param system = IGROV1 ovarian; param query = `CCOC(=O)c1ccc2c(c1)c1c(C)c3ccncc3c(C)c1n2C` ; response: value 1.46 µM

GET /values?readout=TGI&system=IGROV1 ovarian&item= `CC(=O)Nc1cc(C(=O)Nc2cc(C(=O)Nc3cc(C(=O)Nc4cc(C(=O)Nc5cc(C(=O)NCCC(=O)NCCCN(C)C)n(C)c5)n(C)c4)n(C)c3)n(C)c2)n(C)c1` > 100 µM

IGROV1 ovarian / TGI / COC(O)C12OC3CO[Si](C(C)C)(C(C)C)O[Si](C(C)C)(C(C)C)OC3C1Oc1nc(=O)ccn12 (stereo unspecified) : value? 25.6 µM

Identify the measured TGI of `C/C(=N\NC(=S)NCCNC(=S)N/N=C(\C)c1ccccn1)c1ccccn1` for IGROV1 ovarian. > 31.5 µM

# value lookup — system IGROV1 ovarian, readout TGI, item `C/C(CC(=O)Nc1ccccc1[N+](=O)[O-])=N\NC(N)=O` > 100 µM

What is its TGI for IGROV1 ovarian? Entry: `OC(Cc1cccnc1)(c1ccccc1)c1ccccc1` > 100 µM

Item: `O=C1NC(=NCCc2cccs2)S/C1=C\c1ccc2ncccc2c1` Test system: IGROV1 ovarian Read-out: TGI Value: ? > 25 µM

Request body: readout TGI, system IGROV1 ovarian, query `COc1ccc2[nH]c3c(C)c4ccnc(NCCCN(C)CCCNc5ccc6nnn7c8ccccc8c(=O)c5c67)c4c(C)c3c2c1` . Return the value. 1.8 µM

Tell me reported TGI for `Cc1ccc(S(=O)(=O)N/N=C(/CC(=O)c2c(C)n([O-])c3ccccc3[n+]2=O)C(=O)Nc2ccc(C)c(C)c2)cc1` , tested with IGROV1 ovarian. > 100 µM

Give the reported TGI for `c1cc(N2CCCC2)c2nc(-c3[nH]ncc3Nc3ncnc4[nH]ccc34)[nH]c2c1` (system: IGROV1 ovarian). 0.239 µM
